Origin of values: ChEMBL document CHEMBL3301472

Experiment notes: MMV: MTT Cytotoxicity Assay Day 3 pi, U87-CD4-CXCR4 cells, % cell death @ 5mM compound
Format: toxicity, cell-based
Test conditions: human, u87-cd4-cxcr4, 5000 µM
Reported % Cell Death by item:
Please reply with the number alone, leaving off any unit.

Before answering, review these 5 worked examples.
{"Compound": "CCOc1ccccc1CN1CCc2nc3cc(C(C)(C)C)nn3c(O)c2C1", "Quantity measured": "% Cell Death", "Obs value": 21}
{"Compound": "CC(C)(C)CC(C)(C)NCC(O)COc1ccc(Cl)cc1Cl (stereo not drawn)", "Quantity measured": "% Cell Death", "Obs value": 39}
{"Compound": "CNCCCNc1ccnc2cc(Cl)ccc12", "Quantity measured": "% Cell Death", "Obs value": 100}
{"Compound": "CC(=O)Nc1nnc(SCc2c(C)cc(C(C)(C)C)cc2C)s1", "Quantity measured": "% Cell Death", "Obs value": 27}
{"Compound": "N#Cc1nc(Cc2cccc3ccccc23)oc1N1CCN(C(c2ccccc2)c2ccccc2)CC1", "Quantity measured": "% Cell Death", "Obs value": 101}

compound `c1ccc2c(NCCc3c[nH]c4ccccc34)c3ccccc3nc2c1` , % Cell Death observed: 62

compound `CN1c2ccccc2N(C)C1c1ccc2c(c1)OCO2` , % Cell Death observed: 3
